src = patent US20240174690A1

Recorded measurements of IC50, one per entry
System: GP2D cells
assay: GP2D proliferation assay (120 h) (colorectal cancer, G12D)
Format: cell-based

structure	IC50
C[C@H](Oc1cc(N2CCNC[C@]23CCOC3)nc(-c2onc3c2CCC[C@@]32CCCc3sc(N)c(C#N)c32)n1)[C@@H]1CCCN1C	1 nM
C[C@H](Oc1cc(N2CCC[C@H](O)C2)nc(-c2noc3c2CCC[C@@]32CCCc3sc(N)c(C#N)c32)n1)[C@@H]1CCCN1C	164 nM
C[C@H](Oc1cc(N2CCN(C)C3(COC3)C2)nc(-c2noc3c2CCC[C@@]32CCCc3sc(N)c(C#N)c32)n1)[C@@H]1CCCN1C	9 nM

Note to self: IC50 recorded for CO[C@@H]1C[C@@H]([C@H](C)Oc2cc(N3CCN(C)C4(CC4)C3)nc(-c3noc4c3CCC[C@@]43CCCc4sc(N)c(C#N)c43)n2)N(C)C1 was 13 nM

Note to self: IC50 recorded for C[C@H](Oc1cc(N2CCNC(C)(C)C2)nc(-c2noc3c2CCC[C@@]32CCCc3sc(N)c(C#N)c32)n1)[C@@H]1CCCN1C was 5 nM

Note to self: IC50 recorded for C[C@H](Oc1cc(N2CCN[C@@H](C)C2)nc(-c2noc3c2CCC[C@@]32CCCc3sc(N)c(C#N)c32)n1)[C@@H]1CCCN1C was 30 nM

Note to self: IC50 recorded for C[C@H](Oc1cc([C@H]2CCN(C)C2)nc(-c2noc3c2CCC[C@@]32CCCc3sc(N)c(C#N)c32)n1)[C@@H]1CCCN1C was 4 nM

Note to self: IC50 recorded for C[C@H](Oc1cc(N2CCN(C)C3(COC3)C2)nc(-c2noc3c2CCC[C@@]32CCCc3sc(N)c(C#N)c32)n1)[C@@H]1C[C@@H](F)CN1C was 11 nM

Note to self: IC50 recorded for C[C@H](Oc1cc(-c2cn(C)nn2)nc(-c2onc3c2CCC[C@@]32CCCc3sc(N)c(C#N)c32)n1)[C@@H]1CCCN1C was 673 nM

###

Test system: AsPC-1 cells
assay: AsPC-1 CTG proliferation assay (120 h) (pancreatic cancer, G12D)
Assay type: cell-based
measurementContext: Homo sapiens, ASPC1
readoutName: pIC50
// returns pIC50 (minus log10 of molar concentration), number only

molecule	pIC50
C[C@H](Oc1cc(N2C[C@H](C)NC3(CC3)C2)nc(-c2onc3c2CCC[C@@]32CCCc3sc(N)c(C#N)c32)n1)[C@@H]1CCCN1C	6.29
C[C@H](Oc1cc(-n2ccc(-c3ccccn3)n2)nc(-c2noc3c2CCC[C@@]32CCCc3sc(N)c(C#N)c32)n1)[C@@H]1CCCN1C	5.88
C[C@H](Oc1cc(-n2cnc(C(=O)N(C)C)c2)nc(-c2noc3c2CCC[C@@]32CCCc3sc(N)c(C#N)c32)n1)[C@@H]1CCCN1C	4.99
C[C@H](Oc1cc(N2CCC[C@H](O)C2)nc(-c2noc3c2CCC[C@@]32CCCc3sc(N)c(C#N)c32)n1)[C@@H]1CCCN1C	5.73
CO[C@H]1CCN(C)[C@@H]1[C@H](C)Oc1cc(-n2ccc(C(=O)N[C@@H]3CCOC3)n2)nc(-c2onc3c2CCC[C@@]32CCCc3sc(N)c(C#N)c32)n1	6.38
C[C@H](Oc1cc(N2CCN(C)C3(COC3)C2)nc(-c2noc3c2CCC[C@@]32CCCc3sc(N)c(C#N)c32)n1)[C@@H]1CCCN1C	6.60
C[C@H](O)Cn1ccc(-c2cc(O[C@@H](C)[C@@H]3CCCN3C)nc(-c3noc4c3CCC[C@@]43CCCc4sc(N)c(C#N)c43)n2)n1	5.65
C[C@H](Oc1cc(N2CCN3CCC3C2)nc(-c2onc3c2CCC[C@@]32CCCc3sc(N)c(C#N)c32)n1)[C@@H]1CCCN1C (stereo partly shown)	5.54
C[C@H](Oc1cc(N2CCNC3(COC3)C2)nc(-c2noc3c2CCC[C@@]32CCCc3sc(N)c(C#N)c32)n1)[C@@H]1CCCN1C	7.38
C[C@H](Oc1cc(N2CCNC2=O)nc(-c2noc3c2CCC[C@@]32CCCc3sc(N)c(C#N)c32)n1)[C@@H]1CCCN1C	5.97

Note to self: pIC50 recorded for C[C@H](Oc1cc(N2C[C@H](C)NC3(CC3)C2)nc(-c2noc3c2CCC[C@@]32CCCc3sc(N)c(C#N)c32)n1)[C@@H]1C[C@@H](F)CN1C was 7.35

Note to self: pIC50 recorded for C[C@H](Oc1cc(-c2ccn([C@H]3CCCOC3)n2)nc(-c2noc3c2CCC[C@@]32CCCc3sc(N)c(C#N)c32)n1)[C@@H]1CCCN1C was 5.72

###

System: KRAS G12C-dependent Ba/F3 cells
assay: Ba/F3 proliferation assay, KRAS G12C
Assay type: cell-based
measurementContext: Mus musculus, BaF3, 72 h, AlamarBlue
Consider the cut-off 40 nM. If the recorded IC50 is strictly smaller, the label is MET; if not, the label is NOT MET.

Solved entries:
structure	discreteLabel
C[C@H](Oc1cc(-n2cc(-c3cccnc3)nn2)nc(-c2noc3c2CCC[C@@]32CCCc3sc(N)c(C#N)c32)n1)[C@@H]1CCCN1C	MET
C[C@H](Oc1nc(-c2noc3c2CCC[C@@]32CCCc3sc(N)c(C#N)c32)cc(N2C[C@H](C)N[C@@H](C)C2)n1)[C@@H]1CCCN1C	NOT MET
C[C@H](Oc1cc(N2CCC[C@H](O)C2)nc(-c2noc3c2CCC[C@@]32CCCc3sc(N)c(C#N)c32)n1)[C@@H]1CCCN1C	MET
C[C@H](Oc1cc(N2C[C@H](C)N[C@@H](C)C2)nc(-c2noc3c2CCC[C@@]32CCCc3sc(N)c(C#N)c32)n1)[C@@H]1CCCN1C	NOT MET
C[C@H](Oc1cc(-n2cnc3cccnc32)nc(-c2noc3c2CCC[C@@]32CCCc3sc(N)c(C#N)c32)n1)[C@@H]1CCCN1C	NOT MET

Shifting focus to the compound that follows.
For this compound, is IC50 lower than 40 nM? C[C@H](Oc1cc(N2CCCC2=O)nc(-c2noc3c2CCC[C@@]32CCCc3sc(N)c(C#N)c32)n1)[C@@H]1CCCN1C MET

###

tgt: KRAS (WT)::SOS1 (Homo sapiens (Human), UniProt P01116, C118S)
Sequence (P01116 other isoform, or with tags, fused parts or gaps C118S): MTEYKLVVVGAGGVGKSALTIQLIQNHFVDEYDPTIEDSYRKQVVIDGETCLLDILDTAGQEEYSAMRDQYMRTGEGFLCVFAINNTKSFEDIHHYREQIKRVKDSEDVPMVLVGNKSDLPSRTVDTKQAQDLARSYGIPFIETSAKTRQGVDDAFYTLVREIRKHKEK
assay: KRAS::SOS1 AlphaScreen binding assay, KRAS WT
Procedure: This assay can be used to examine the potency with which compounds according to the invention binding to (mutated) KRAS inhibit the protein-protein interaction between SOS1 and (mutated) KRAS e.g., KRAS WT, KRAS G12C, KRAS G12D, KRAS G12V, KRAS G13D. […] Plates are kept at room temperature in a darkened incubator. After an additional 60 minutes incubation time the signal is measured in a PerkinElmer Envision HTS Multilabel Reader using the AlphaScreen specs from PerkinElmer. […]
pIC50: −log10 of the molar value.
Param threshold (8) applies to pIC50; output True when value >= threshold, False when value < threshold.

structure	discreteLabel
C[C@H](Oc1cc(-n2cc3c(n2)CCNC3)nc(-c2noc3c2CCC[C@@]32CCCc3sc(N)c(C#N)c32)n1)[C@@H]1CCCN1C	True
C[C@H](Oc1cc(-c2ccn(C)n2)nc(-c2noc3c2CCC[C@@]32CCCc3sc(N)c(C#N)c32)n1)[C@@H]1CCCN1C	True
C[C@H](Oc1cc(N2CCNC3(CC3)C2)nc(-c2onc3c2CCC[C@@]32CCCc3sc(N)c(C#N)c32)n1)[C@@H]1CCCN1C	True

Shifting focus to the compound that follows.
Given C[C@H](Oc1cc(N2CCC(N(C)C)CC2)nc(-c2noc3c2CCC[C@@]32CCCc3sc(N)c(C#N)c32)n1)[C@@H]1CCCN1C , state whether its pIC50 is at least 8. False

###

Recorded measurements of fraction unbound, one per entry
assay: Plasma protein binding assay (PPB), equilibrium dialysis, 10% FCS in PBS
Assay type: in vitro ADME
measurementContext: bovine, read-out: PPB 10% FCS (% fu)

For orientation, consider the following solved cases.
structure	fraction unbound
C[C@H](Oc1cc(N2CCC[C@@H](O)C2)nc(-c2noc3c2CCC[C@@]32CCCc3sc(N)c(C#N)c32)n1)[C@@H]1CCCN1C	0.64
C[C@H](O)Cn1ncc(-c2cc(O[C@@H](C)[C@@H]3CCCN3C)nc(-c3noc4c3CCC[C@@]43CCCc4sc(N)c(C#N)c43)n2)n1	0.31
COCCNC(=O)c1ccn(-c2cc(O[C@@H](C)[C@@H]3CCCN3C)nc(-c3noc4c3CCC[C@@]43CCCc4sc(N)c(C#N)c43)n2)n1	0.24
C[C@H](Oc1cc(N2C[C@H](C)N[C@@H](C)C2)nc(-c2noc3c2CCC[C@@]32CCCc3sc(N)c(C#N)c32)n1)[C@@H]1CCCN1C	0.48
C[C@H](Oc1cc(N2C[C@H](C)N(C)[C@@H](C)C2)nc(-c2onc3c2CCC[C@@]32CCCc3sc(N)c(C#N)c32)n1)[C@@H]1CCCN1C	0.73

Let's switch to this compound now.
Note to self: fraction unbound recorded for C[C@H](O)Cn1ccc(-c2cc(O[C@@H](C)[C@@H]3CCCN3C)nc(-c3onc4c3CCC[C@@]43CCCc4sc(N)c(C#N)c43)n2)n1 was 0.53
